Overview of recorded pIC50 for various molecules
Biological target: mTOR/GbL/Raptor (mTORC1) (Homo sapiens, UniProt P42345)
Assay: mTOR/GbL/Raptor (mTORC1) ELISA assay
Conditions: phosphorylation of 4E-BP1; 0.2 nM mTORC1, 10 μM ATP; read-out: IC50 in this assay (mTORC1 ELISA)
pIC50: −log10 of the molar value.
assay.readout: pIC50

>>> readout_value("CC[C@H]1CCc2c(nc(C)nc2N2CCOc3ccc(-c4cnc5nc(C)[nH]c5c4)cc3C2)C1 [Example 487]")
"7.30 to 8.00"
>>> readout_value("CCn1ccc2cc(-c3ccc4c(c3)CN(c3ccnc5ccccc35)CCO4)cnc21 [Example 223]")
"≤ 5.70"
>>> readout_value("Nc1ccc(-c2ccc3c(c2)CN(c2ccnc4ccccc24)CCO3)cn1 [Example 226]")
"7.30 to 8.00"
>>> readout_value("Cc1nc2ncc(-c3ccc4c(c3)CN(c3ncnc5c3CCC(CO)C5)CCO4)cc2[nH]1 (stereo not shown) [Example 309]")
"6.60 to 7.30"
>>> readout_value("CCNc1nc2ccc(-c3ccc4c(c3)CN(c3ccnc5cc(OC)c(OC)cc35)CCO4)cc2[nH]1 [Example 261]")
"6.00 to 6.60"
>>> readout_value("Cc1nc(Nc2ccccc2)c(C)c(N2CCOc3ccc(-c4ccc5nc[nH]c5c4)cc3C2)n1 [Example 529]")
"6.00 to 6.60"
>>> readout_value("Cc1nc2ccc(-c3ccc4c(c3)CN(c3ccnc(C)c3Cc3ccccc3)CCO4)cc2[nH]1 [Example 101]")
"7.30 to 8.00"
>>> readout_value("COC(=O)Nc1nc2ccc(-c3ccc4c(c3)CN(c3ncnc5cc(OC)c(OC)cc35)CCO4)cc2[nH]1 [Example 111]")
"5.70 to 6.00"
>>> readout_value("Cc1nc2ccc(-c3ccc4c(c3)CN(c3ncnc(C)c3Cc3ccccc3C)CCO4)cc2[nH]1 [Example 86]")
"7.30 to 8.00"
>>> readout_value("Cc1nc2ccc(-c3ccc4c(c3)CN(c3ncnc5cc(Cl)c(I)cc35)CCO4)cc2[nH]1 [Example 35]")
"6.60 to 7.30"
>>> readout_value("COc1c(OCC2CC2)ccc2c(N3CCOc4ccc(-c5ccc6nc(C)[nH]c6c5)cc4C3)ncnc12 [Example 168]")
"6.00 to 6.60"
>>> readout_value("Cc1nc2c(c(N3CCOc4ccc(-c5cnc6nc(C)[nH]c6c5)cc4C3)n1)CC(C)CC2 (stereo not shown) [Example 460]")
"7.30 to 8.00"
>>> readout_value("Cc1nc2ccc(-c3ccc4c(c3)CN(c3ncnc5c3CC(C)C5)CCO4)cc2[nH]1 (stereo not shown) [Example 76]")
"6.60 to 7.30"
>>> readout_value("COc1ncc(-c2ccc3c(c2)CN(c2ncnc4c2CC(C)(C)CC4)CCO3)cc1NS(C)(=O)=O [Example 628]")
"7.30 to 8.00"
>>> readout_value("CC1(C)CCc2ncnc(N3CCOc4ccc(-c5cnc(N)c(S(=O)(=O)N6CCC(C)(N)C6)c5)cc4C3)c2C1 (stereo not shown) [Example 440]")
"≥ 8.00"
>>> readout_value("Cc1ncnc(N2CCOc3ccc(-c4cnc5nc[nH]c5c4)cc3C2)c1Cc1ccc(F)cc1 [Example 142]")
"≥ 8.00"
>>> readout_value("Cc1nc2ccc(-c3ccc4c(c3)CN(c3ncnc(C)c3C(C)C)CCO4)cc2[nH]1 [Example 66]")
"≥ 8.00"
>>> readout_value("Cc1nc(C)c(Cc2ccc(F)cc2)c(N2CCOc3ccc(-c4ccc5nc(C)[nH]c5c4)cc3C2)n1 [Example 97]")
"≥ 8.00"
>>> readout_value("COc1ccc2c(N3CCOc4ccc(-c5cnc(NC(C)=O)s5)cc4C3)nc(C)nc2c1 [Example 293]")
"≤ 5.70"
>>> readout_value("CC1(C)CCc2ncnc(N3CCOc4ccc(-c5cnc(N)c(S(=O)(=O)NC[C@@H]6CCCN6)c5)cc4C3)c2C1 [Example 383]")
"6.60 to 7.30"
>>> readout_value("CC1(C)CCc2ncnc(N3CCOc4ccc(-c5cnc(N)c(S(=O)(=O)N6CCC(N)CC6)c5)cc4C3)c2C1 [Example 446]")
"7.30 to 8.00"
>>> readout_value("COc1cc2c(N3CCOc4ccc(-c5ccc6nc(C)[nH]c6c5)cc4C3)ncnc2cc1OCc1ccccc1 [Example 10]")
"6.00 to 6.60"
>>> readout_value("CCc1ncnc(N2CCOc3ccc(-c4ccc5nc(C)[nH]c5c4)cc3C2)c1C [Example 56]")
"6.00 to 6.60"
>>> readout_value("CCc1c(C)ncnc1N1CCOc2ccc(-c3cnc4nc(C)[nH]c4c3)cc2C1 [Example 470]")
"6.60 to 7.30"
>>> readout_value("COc1cc2nccc(N3CCOc4ccc(-c5ccc(-c6ncc[nH]6)cc5)cc4C3)c2cc1OC [Example 272]")
"6.60 to 7.30"
>>> readout_value("CCNc1nc2ccc(-c3ccc4c(c3)CN(c3nc(NC)nc5ccccc35)CCO4)cc2[nH]1 [Example 269]")
"6.00 to 6.60"
>>> readout_value("Cc1nc2ccc(-c3ccc4c(c3)CN(c3ncnc(C)c3Cc3ccccc3)CCO4)cc2[nH]1 [Example 55]")
"≥ 8.00"
>>> readout_value("CN(C)Cc1nc2c(c(N3CCOc4ccc(-c5ccc6[nH]c(C(F)F)nc6c5)cc4C3)n1)CC(C)(C)CC2 [Example 320]")
"7.30 to 8.00"
>>> readout_value("CC1(C)CCc2ncnc(N3CCOc4ccc(-c5cnc(N)c(S(=O)(=O)N[C@@H]6CCNC6)c5)cc4C3)c2C1 [Example 387]")
"≥ 8.00"
>>> readout_value("Cc1nc2ccc(-c3ccc4c(c3)CN(c3ncnc(C)c3C(C)c3ccccc3)CCO4)cc2[nH]1 (stereo not shown) [Example 74]")
"≥ 8.00"
>>> readout_value("CC1(C)CCc2ncnc(N3CCOc4ccc(-c5cnc(N)c(S(=O)(=O)CC(O)CO)c5)cc4C3)c2C1 (stereo not shown) [Example 431]")
"7.30 to 8.00"
